pKi: recorded values
Target: recombinant human ALK5 (TGF-βR1) protein (Homo sapiens)
Sequence (P36897 34-503): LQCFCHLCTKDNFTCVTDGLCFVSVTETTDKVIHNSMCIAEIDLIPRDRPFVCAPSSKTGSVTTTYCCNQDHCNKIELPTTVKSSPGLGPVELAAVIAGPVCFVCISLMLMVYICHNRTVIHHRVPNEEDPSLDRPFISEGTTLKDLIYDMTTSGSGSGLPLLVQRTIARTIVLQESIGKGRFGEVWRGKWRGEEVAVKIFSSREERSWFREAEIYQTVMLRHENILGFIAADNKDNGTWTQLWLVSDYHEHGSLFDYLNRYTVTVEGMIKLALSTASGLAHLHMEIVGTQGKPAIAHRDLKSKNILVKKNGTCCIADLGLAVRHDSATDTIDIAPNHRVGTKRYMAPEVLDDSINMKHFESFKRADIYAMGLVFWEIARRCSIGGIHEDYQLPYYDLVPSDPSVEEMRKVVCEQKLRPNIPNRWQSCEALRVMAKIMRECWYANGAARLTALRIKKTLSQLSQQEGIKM
Test: Biochemical ALK5 (TGF-βR1) assay to measure pKi (LANCE Ultra ULight kinase assay)
Details: apparent pKi, converted from pIC50 by Cheng-Prusoff
pKi: −log10 of the molar value.

CNC1CCN(S(=O)(=O)c2ccc(Nc3nccc(Nc4ccnc(-c5cccc(C)n5)n4)n3)cc2)CC1 [Compound 352]
9.50 to 10.40
Cc1cccc(-c2nccc(Nc3ccnc(Nc4ccc(CN5CCNCC5)cc4)n3)n2)n1 [Compound 359]
9.50 to 10.40
Cc1cccc(-c2nccc(Nc3ccnc(Nc4ccc(N5CCN(CCO)CC5)cc4)n3)n2)n1 [Compound 534]
9.50 to 10.40
Cc1cccc(-c2nccc(Nc3ccnc(Nc4cncc(CN5CC(C(=O)OCC6CNC6)C5)c4)n3)n2)n1 [Compound 614]
9.50 to 10.40
Cc1cccc(-c2nccc(Nc3ccnc(Nc4csc(C(=O)OCC5CNC5)c4)n3)n2)n1 [Compound 96]
9.50 to 10.40
CCN1CCN(c2ccc(Nc3nccc(Nc4ccnc(-c5cccc(C)n5)n4)n3)cc2)CC1 [Compound 80]
9.50 to 10.40
Cc1cccc(-c2nc(Nc3ccnc(Nc4ccc(NC(=O)CC5CNC5)cc4)n3)c3cccn3n2)n1 [Compound 1029]
9.50 to 10.40

Now for the molecule whose pKi we want.
Asked: What does the data say about its pKi? Entry: Cc1cccc(-c2nccc(Nc3ccnc(Nc4ccc(F)c(CN5CCN(C)CC5)c4)n3)n2)n1 [Compound 244]
Given back: 9.50 to 10.40
